test system: RAW264.7; experiment: Antiinflammatory activity in mouse RAW264.7 cells assessed as reduction in LPS-induced NO production at 10 uM after 18 hrs by Griess assay relative to control; type: functional; settings: RAW264.7, 18 h
readout-label: inhibition at 10 µM (%)
Answers are plain numbers, in %.

Examples from the recorded data:
{"compound": "COc1ccc2c(c1)OCC(Cc1ccccc1O)C2=O (stereo unspecified)", "inhibition at 10 µM, %": 19.7}
{"compound": "COc1ccc2c(c1)OC/C(=C\\c1ccccc1O)C2=O", "inhibition at 10 µM, %": 91.4}
{"compound": "COc1cc(O)c2c(c1)OCC(Cc1ccccc1O)C2=O (stereo unspecified)", "inhibition at 10 µM, %": 38}

# map each compound to its inhibition at 10 µM
1. COc1cc(OC)c2c(c1)OCC(Cc1ccccc1O)C2=O (racemic)
2. COc1cc2c(c(O)c1OC)C(=O)C(Cc1ccccc1O)CO2 (racemic)
3. COc1cc(O)c2c(c1)OC/C(=C\c1ccccc1O)C2=O

a:
[20.5, 34.1, 92.5]

----------
Answer each item with its documented viability at 24 h, 100 µM.
assay: Cytotoxicity against mouse RAW264.7 cells assessed as cell viability at 100 uM after 24 hrs by CellTiter96 AQueous one solution cell proliferation assay (reference value: 100 +/- 2.4%); assay type: cell-based; conditions: read-out: Activity
Answers are plain numbers, in %.

These solved cases illustrate the format of a correct answer.
{"molecule": "COc1cc2c(c(O)c1OC)C(=O)C(Cc1ccccc1O)CO2 (racemic)", "viability at 24 h, 100 µM / %": 15.5}
{"molecule": "COc1ccc2c(c1)OCC(Cc1ccccc1O)C2=O (centres undefined)", "viability at 24 h, 100 µM / %": 31.5}
{"molecule": "COc1cc(O)c2c(c1)OCC(Cc1ccccc1O)C2=O (centres undefined)", "viability at 24 h, 100 µM / %": 12.5}
{"molecule": "COc1cc(OC)c2c(c1)OCC(Cc1ccccc1O)C2=O (racemic)", "viability at 24 h, 100 µM / %": 41.3}
{"molecule": "COc1ccc2c(c1)OC/C(=C\\c1ccccc1O)C2=O", "viability at 24 h, 100 µM / %": 11.1}
{"molecule": "COc1cc(OC)c2c(c1)OC/C(=C\\c1ccccc1O)C2=O", "viability at 24 h, 100 µM / %": 11.7}
{"molecule": "COc1cc2c(c(OC)c1OC)C(=O)C(Cc1ccccc1O)CO2 (racemic)", "viability at 24 h, 100 µM / %": 44}
{"molecule": "COc1cc2c(c(OC)c1OC)C(=O)/C(=C/c1ccccc1O)CO2", "viability at 24 h, 100 µM / %": 10.9}

Recorded result, COc1cc(O)c2c(c1)OC/C(=C\c1ccccc1O)C2=O , viability at 24 h, 100 µM: 11

----------
experiment: Cytotoxicity against mouse RAW264.7 cells assessed as cell viability at 1 uM after 24 hrs by CellTiter96 AQueous one solution cell proliferation assay (reference value: 100 +/- 2.4%); type: cell-based; conditions: read-out: Activity
readout-label: viability at 24 h, 1 µM (%)
Answers are plain numbers, in %.

Look over these answered cases.
{"compound": "COc1cc(OC)c2c(c1)OC/C(=C\\c1ccccc1O)C2=O", "endpoint-unit": "%", "measured": 108}
{"compound": "COc1ccc2c(c1)OC/C(=C\\c1ccccc1O)C2=O", "endpoint-unit": "%", "measured": 102}
{"compound": "COc1cc2c(c(OC)c1OC)C(=O)/C(=C/c1ccccc1O)CO2", "endpoint-unit": "%", "measured": 94.6}
{"compound": "COc1ccc2c(c1)OCC(Cc1ccccc1O)C2=O (centres undefined)", "endpoint-unit": "%", "measured": 152}
{"compound": "COc1cc2c(c(O)c1OC)C(=O)C(Cc1ccccc1O)CO2 (racemic)", "endpoint-unit": "%", "measured": 97.6}

Batch request: viability at 24 h, 1 µM per item, same order as input.
1. COc1cc(OC)c2c(c1)OCC(Cc1ccccc1O)C2=O (racemic)
2. COc1cc(O)c2c(c1)OC/C(=C\c1ccccc1O)C2=O

a:
[98.6, 94]

Provide viability at 24 h, 1 µM for all items below, preserving their order.
1. COc1cc(O)c2c(c1)OCC(Cc1ccccc1O)C2=O (centres undefined)
2. COc1cc2c(c(OC)c1OC)C(=O)C(Cc1ccccc1O)CO2 (racemic)

a:
[97.7, 89.6]
